Please go through the items and note down their Ki.
Write it as a number; the unit µM goes unstated.

Query: What measured Ki is associated with CCCOc1cc2c(cc1\C(C)=C(F)/C=C/C(C)=C/C(=O)O)C(C(C)(C)C)=CCC2(C)C on RARγ (Homo sapiens, UniProt P13631)?
Reply: 0.274

Query: Form field: Ki recorded for CCCOc1cc2c(cc1\C(C)=C(F)/C=C/C(C)=C/C(=O)O)C(C(C)C)=CCC2(C)C with RARγ (Homo sapiens, UniProt P13631) (enter value)
Reply: 6.4

Query: Lab note: need Ki for CC(/C=C/C(F)=C(/C)c1cc2c(c(Cl)c1OC(C)C)OC(C)(C)C=C2C(C)C)=C\C(=O)O on RARγ (Homo sapiens, UniProt P13631), anyone have it?
Reply: 3.4

Query: Recall the recorded Ki for COc1c(\C(C)=C(F)/C=C/C(C)=C/C(=O)O)cc2c(c1Cl)OC(C)(C)C=C2C(C)C with RARγ (Homo sapiens, UniProt P13631) and state it.
Sequence (P13631 whole entry, species assumed): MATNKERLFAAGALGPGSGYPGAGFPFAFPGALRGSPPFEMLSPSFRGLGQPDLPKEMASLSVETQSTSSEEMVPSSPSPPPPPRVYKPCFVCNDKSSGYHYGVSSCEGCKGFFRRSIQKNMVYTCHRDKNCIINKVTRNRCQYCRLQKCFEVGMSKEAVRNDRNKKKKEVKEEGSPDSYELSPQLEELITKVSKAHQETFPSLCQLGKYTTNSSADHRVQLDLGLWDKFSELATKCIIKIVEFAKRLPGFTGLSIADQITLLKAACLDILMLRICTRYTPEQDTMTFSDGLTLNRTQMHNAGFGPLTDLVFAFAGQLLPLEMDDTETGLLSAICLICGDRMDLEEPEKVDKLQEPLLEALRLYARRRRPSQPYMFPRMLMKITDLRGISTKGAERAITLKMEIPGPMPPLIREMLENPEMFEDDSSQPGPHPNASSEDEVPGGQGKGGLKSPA
Reply: 5.3

Query: Item CCOc1cc2c(cc1\C(C)=C(F)/C=C/C(C)=C/C(=O)O)C(C)=CCC2(C)C with RARγ (Homo sapiens, UniProt P13631) - Ki?
Reply: 1.2

Query: # query: Ki | item CCOc1cc2c(cc1\C(C)=C(F)/C=C/C(C)=C/C(=O)O)C=CCC2(C)C | system: RARγ (Homo sapiens, UniProt P13631)
Reply: 9.2

Query: Identify the measured Ki of CCOc1c(\C(C)=C/C=C/C(C)=C/C(=O)O)cc2c(c1Cl)OC(C)(C)C=C2C(C)C for RARγ (Homo sapiens, UniProt P13631).
Reply: 5.9

Query: Write down the reported Ki of CCOc1cc2c(cc1\C(C)=C(F)/C=C/C(C)=C/C(=O)O)C(C(C)(C)C)=CCC2(C)C , test system: RARγ (Homo sapiens, UniProt P13631).
Reply: 1.4
